Overview of recorded pIC50 for various compounds
# Test system: Hela
# assay procedure: Antiproliferative CCK8 assay, Hela
# Type: cell-based
# test parameters: Homo sapiens, 72 h incubation, average of three replicates, read-out: Relative IC50 against tumor cell line Hela
pIC50: −log10 of the molar value.

compound | measured on | pIC50
CC(=O)c1cc(O)c(O)c2c1[C@]1(C)CC[C@H]3C(C)(C)CCC[C@]3(C)[C@H]1C2 | Hela | < 4.52

Given item COC(=O)c1cc(O)c(O)c2c1[C@]1(C)CC[C@H]3C(C)(C)CCC[C@]3(C)[C@H]1C2 , the value recorded as its pIC50 is < 4.52

Recorded result, CCc1cc(O)c(O)c2c1[C@]1(C)CC[C@H]3C(C)(C)CCC[C@]3(C)[C@H]1C2 , pIC50: < 4.52
